# Tested on: PPARg homodimer (NR concentration 180 nM)
# Test Summary: PBM binding z-score (relative to random genomic background probes); higher = stronger binding; sequences stand for … in GC…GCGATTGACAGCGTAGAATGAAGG
Decide using PBM binding z-score: a value greater than or equal to 3 is y, a smaller one is n.

[[record]]
query_sequence = "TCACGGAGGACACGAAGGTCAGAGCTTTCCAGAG"
discrete_label = "n"

[[record]]
query_sequence = "GCTAGCAGGCCATTTGGGTCTCTCAATGACGGGC"
discrete_label = "n"

[[record]]
query_sequence = "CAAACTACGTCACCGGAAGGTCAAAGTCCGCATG"
discrete_label = "n"

[[record]]
query_sequence = "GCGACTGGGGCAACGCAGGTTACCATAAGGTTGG"
discrete_label = "n"

[[record]]
query_sequence = "CGAACTAGATCATTGACAGGACAGTGAATAGTAA"
discrete_label = "n"

[[record]]
query_sequence = "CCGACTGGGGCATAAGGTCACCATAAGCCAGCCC"
discrete_label = "y"

[[record]]
query_sequence = "TCTAGTTGGGCAAAGGTCACACACTCGAAATGCG"
discrete_label = "y"

[[record]]
query_sequence = "TCTTGTAGATCAAGCAGGTAAAGAAAGCCTGAGT"
discrete_label = "n"

[[record]]
query_sequence = "TAGCCTAGGTCAGATCGTGCCAGTATACGCTATA"
discrete_label = "n"

[[record]]
query_sequence = "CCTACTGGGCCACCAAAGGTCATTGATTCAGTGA"
discrete_label = "y"

[[record]]
query_sequence = "CCTAGTCGGTCAAGGTCACACACGCTATAGGTAC"
discrete_label = "y"


* * *

# Test system: LXRb:RXRa (NR concentration 270 nM, RXRa partner concentration 90 nM)
# Test Summary: PBM binding z-score (relative to random genomic background probes); higher = stronger binding; sequences stand for … in GC…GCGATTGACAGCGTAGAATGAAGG
Would you mind labelling by PBM binding z-score? At or over 1 is Criterion met, under is Criterion not met.

[[record]]
query_sequence = "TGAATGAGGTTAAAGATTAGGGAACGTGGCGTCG"
discrete_label = "Criterion met"

[[record]]
query_sequence = "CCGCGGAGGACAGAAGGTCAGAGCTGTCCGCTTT"
discrete_label = "Criterion not met"

[[record]]
query_sequence = "CGTCCAAGGACAGCAGGTCAGTGAAAGCGACGTG"
discrete_label = "Criterion not met"

[[record]]
query_sequence = "GGAACGAGGGAATTCGAGTTGATAGCATGGCGAT"
discrete_label = "Criterion not met"

[[record]]
query_sequence = "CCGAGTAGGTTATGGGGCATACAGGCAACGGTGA"
discrete_label = "Criterion not met"

[[record]]
query_sequence = "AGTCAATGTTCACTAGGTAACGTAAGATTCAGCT"
discrete_label = "Criterion not met"

[[record]]
query_sequence = "ATCTCTAGCTAACCAAGTTCAGTGAATGCCGAAC"
discrete_label = "Criterion not met"

[[record]]
query_sequence = "CGTCCAAGGTCAGCAAGTCAGTGAAAGCGACGTG"
discrete_label = "Criterion met"

[[record]]
query_sequence = "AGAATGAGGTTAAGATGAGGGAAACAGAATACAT"
discrete_label = "Criterion met"

[[record]]
query_sequence = "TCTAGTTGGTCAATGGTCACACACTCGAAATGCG"
discrete_label = "Criterion not met"

[[record]]
query_sequence = "CCTACTGGGCCATTCAGAGGTCTTTGATCATATG"
discrete_label = "Criterion not met"

[[record]]
query_sequence = "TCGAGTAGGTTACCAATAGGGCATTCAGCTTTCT"
discrete_label = "Criterion not met"

[[record]]
query_sequence = "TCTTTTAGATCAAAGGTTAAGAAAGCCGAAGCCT"
discrete_label = "Criterion met"

[[record]]
query_sequence = "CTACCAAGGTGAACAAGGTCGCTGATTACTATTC"
discrete_label = "Criterion met"

[[record]]
query_sequence = "TAGCCTAGATCAGATCGGGCCAGTATACGCTATA"
discrete_label = "Criterion not met"

[[record]]
query_sequence = "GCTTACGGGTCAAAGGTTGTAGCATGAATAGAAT"
discrete_label = "Criterion met"

[[record]]
query_sequence = "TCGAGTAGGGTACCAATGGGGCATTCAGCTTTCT"
discrete_label = "Criterion not met"

[[record]]
query_sequence = "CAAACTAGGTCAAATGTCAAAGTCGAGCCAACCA"
discrete_label = "Criterion met"

[[record]]
query_sequence = "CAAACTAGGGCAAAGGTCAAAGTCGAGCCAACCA"
discrete_label = "Criterion met"

[[record]]
query_sequence = "ATCTCTAGGTAAAAGTTTAGTGAATCCCGAGGAT"
discrete_label = "Criterion not met"

[[record]]
query_sequence = "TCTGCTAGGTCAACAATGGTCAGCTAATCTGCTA"
discrete_label = "Criterion met"

[[record]]
query_sequence = "TCTCGGAGGACACGAAGGTCAGAGCATTCCAGAG"
discrete_label = "Criterion not met"

[[record]]
query_sequence = "GACACAGGGTCAAGGCCAGAGTACGCGTATTGAT"
discrete_label = "Criterion met"

[[record]]
query_sequence = "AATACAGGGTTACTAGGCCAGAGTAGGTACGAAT"
discrete_label = "Criterion met"

[[record]]
query_sequence = "TCTAGTTGGTCACGGAAGTCACACACGACGGGTA"
discrete_label = "Criterion not met"

[[record]]
query_sequence = "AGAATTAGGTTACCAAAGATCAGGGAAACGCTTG"
discrete_label = "Criterion met"

[[record]]
query_sequence = "ATCGAAAGGTTGACGAGGTGAGTATACACCGTTT"
discrete_label = "Criterion not met"

[[record]]
query_sequence = "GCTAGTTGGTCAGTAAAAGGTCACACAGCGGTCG"
discrete_label = "Criterion met"

[[record]]
query_sequence = "TAGCCTAGATCATGCGGGCCAGTATAGTGTCGGC"
discrete_label = "Criterion not met"

[[record]]
query_sequence = "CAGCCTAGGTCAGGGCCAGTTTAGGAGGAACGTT"
discrete_label = "Criterion not met"

[[record]]
query_sequence = "GCTAGTTGGTCAGTAAAAGGTCACACGCCGGTCG"
discrete_label = "Criterion met"

[[record]]
query_sequence = "GCATATAGGTAATACAAGGTGACAGTCCGATTGT"
discrete_label = "Criterion not met"

[[record]]
query_sequence = "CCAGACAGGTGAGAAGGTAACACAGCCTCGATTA"
discrete_label = "Criterion not met"

[[record]]
query_sequence = "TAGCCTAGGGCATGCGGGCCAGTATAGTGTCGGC"
discrete_label = "Criterion not met"

[[record]]
query_sequence = "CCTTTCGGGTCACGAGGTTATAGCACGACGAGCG"
discrete_label = "Criterion met"

[[record]]
query_sequence = "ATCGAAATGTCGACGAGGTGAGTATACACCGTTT"
discrete_label = "Criterion not met"

[[record]]
query_sequence = "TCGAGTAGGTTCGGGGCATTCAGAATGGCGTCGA"
discrete_label = "Criterion not met"

[[record]]
query_sequence = "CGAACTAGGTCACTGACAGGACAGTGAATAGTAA"
discrete_label = "Criterion met"

[[record]]
query_sequence = "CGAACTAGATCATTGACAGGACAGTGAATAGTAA"
discrete_label = "Criterion not met"

[[record]]
query_sequence = "AGTCAAAGTTCACTAGTTAACGTAAGATTCAGCT"
discrete_label = "Criterion met"

[[record]]
query_sequence = "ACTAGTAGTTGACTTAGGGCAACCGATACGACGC"
discrete_label = "Criterion not met"

[[record]]
query_sequence = "GCGACTGGGGCAAAGCAGGTTACCATCAGGTTGG"
discrete_label = "Criterion not met"

[[record]]
query_sequence = "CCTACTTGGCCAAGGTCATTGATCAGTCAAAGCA"
discrete_label = "Criterion met"

[[record]]
query_sequence = "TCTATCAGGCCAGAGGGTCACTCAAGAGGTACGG"
discrete_label = "Criterion met"

[[record]]
query_sequence = "GCTAGTTGGTCAGTAAAAGGGCACACACCGGTCG"
discrete_label = "Criterion not met"

[[record]]
query_sequence = "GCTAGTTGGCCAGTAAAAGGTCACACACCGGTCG"
discrete_label = "Criterion met"

[[record]]
query_sequence = "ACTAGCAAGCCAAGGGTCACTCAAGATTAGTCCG"
discrete_label = "Criterion met"

[[record]]
query_sequence = "CCTAGCAGGCCAGGGTCAGTCAAGCATTTCGCTT"
discrete_label = "Criterion met"

[[record]]
query_sequence = "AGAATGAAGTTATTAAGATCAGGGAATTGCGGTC"
discrete_label = "Criterion not met"

[[record]]
query_sequence = "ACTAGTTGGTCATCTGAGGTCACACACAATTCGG"
discrete_label = "Criterion met"


* * *

Consider the following sequences and their measured PBM binding z-score readings.
# Tested on: THRa homodimer (NR concentration 90 nM)
# Test Summary: PBM binding z-score (relative to random genomic background probes); higher = stronger binding; sequences stand for … in GC…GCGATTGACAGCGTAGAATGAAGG
Result Type: PBM binding z-score

[[record]]
query_sequence = "ATATGTAGGTTAGCTGGGCTCATTCAGACTAGGC"
measured = -0.522

[[record]]
query_sequence = "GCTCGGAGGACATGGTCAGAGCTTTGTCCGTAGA"
measured = -0.306

[[record]]
query_sequence = "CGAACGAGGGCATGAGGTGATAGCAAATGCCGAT"
measured = 0.557

[[record]]
query_sequence = "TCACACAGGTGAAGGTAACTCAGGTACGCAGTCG"
measured = 0.16

[[record]]
query_sequence = "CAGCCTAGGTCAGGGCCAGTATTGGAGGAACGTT"
measured = 0.259

[[record]]
query_sequence = "CGAACTAGGTCAAGGACAGTGTATCTCCGCACGC"
measured = 2.61

[[record]]
query_sequence = "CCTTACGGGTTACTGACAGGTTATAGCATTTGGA"
measured = -0.00572

[[record]]
query_sequence = "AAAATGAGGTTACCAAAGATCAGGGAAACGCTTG"
measured = 0.766

[[record]]
query_sequence = "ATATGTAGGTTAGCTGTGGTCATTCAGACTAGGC"
measured = -0.0944

[[record]]
query_sequence = "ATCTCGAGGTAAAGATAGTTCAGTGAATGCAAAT"
measured = -0.16

[[record]]
query_sequence = "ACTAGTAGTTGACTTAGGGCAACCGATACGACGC"
measured = -0.151

[[record]]
query_sequence = "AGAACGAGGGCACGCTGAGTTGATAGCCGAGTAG"
measured = 0.0635

